Would you mind telling me the reported kinase still bound, per cent of control of each entry?
- experimental_system: BMP2K (human) (UniProt Q9NSY1)
- Sequence (Q9NSY1 whole entry, looked up): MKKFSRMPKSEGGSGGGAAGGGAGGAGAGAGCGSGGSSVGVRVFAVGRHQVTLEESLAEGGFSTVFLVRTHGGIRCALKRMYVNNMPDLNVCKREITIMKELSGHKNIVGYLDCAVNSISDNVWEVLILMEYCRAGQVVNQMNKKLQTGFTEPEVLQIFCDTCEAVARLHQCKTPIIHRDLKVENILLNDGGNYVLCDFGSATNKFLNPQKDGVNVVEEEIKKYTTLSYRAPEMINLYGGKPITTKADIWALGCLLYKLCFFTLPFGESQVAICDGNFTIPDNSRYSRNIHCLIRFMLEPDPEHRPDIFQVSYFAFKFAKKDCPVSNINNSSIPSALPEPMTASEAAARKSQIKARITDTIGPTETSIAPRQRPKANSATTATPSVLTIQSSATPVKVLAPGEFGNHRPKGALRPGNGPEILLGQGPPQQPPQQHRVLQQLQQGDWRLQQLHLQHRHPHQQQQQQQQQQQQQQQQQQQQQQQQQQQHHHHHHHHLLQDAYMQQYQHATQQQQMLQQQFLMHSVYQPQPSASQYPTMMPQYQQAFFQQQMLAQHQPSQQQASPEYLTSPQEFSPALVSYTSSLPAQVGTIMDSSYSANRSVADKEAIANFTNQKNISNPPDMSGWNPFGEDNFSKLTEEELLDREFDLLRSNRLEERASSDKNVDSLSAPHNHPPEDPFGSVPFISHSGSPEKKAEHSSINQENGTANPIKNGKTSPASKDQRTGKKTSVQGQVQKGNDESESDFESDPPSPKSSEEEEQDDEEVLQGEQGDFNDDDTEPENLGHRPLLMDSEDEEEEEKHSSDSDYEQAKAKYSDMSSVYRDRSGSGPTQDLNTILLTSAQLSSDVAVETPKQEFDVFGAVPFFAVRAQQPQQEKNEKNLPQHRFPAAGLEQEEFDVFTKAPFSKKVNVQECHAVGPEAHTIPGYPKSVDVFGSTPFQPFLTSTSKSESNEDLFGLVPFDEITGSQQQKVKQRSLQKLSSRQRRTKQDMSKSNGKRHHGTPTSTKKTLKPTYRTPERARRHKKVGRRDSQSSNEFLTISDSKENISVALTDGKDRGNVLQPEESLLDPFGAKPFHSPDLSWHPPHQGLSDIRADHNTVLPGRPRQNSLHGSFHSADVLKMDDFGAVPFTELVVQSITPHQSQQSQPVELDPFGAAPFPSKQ
- test_method_notes: KINOMEscan competition binding
- particulars: compound 10.0 µM
Answers are plain numbers, in %.

Please review the following examples before continuing.
Exercise: Fill in the blank: the reported kinase still bound, per cent of control of COc1cc(N2CCN(C)CC2)ccc1Nc1ncc2c(n1)N(C)c1ccccc1N(C)C2=O is ____.
Solution: 100

Exercise: What do we get for N=C1NC(=O)/C(=C/c2ccc(-c3cncc4ccccc34)o2)S1 ?
Solution: 0

Exercise: What do we get for O=C1NC(=O)/C(=C/c2c[nH]c(=O)c(-c3ccc(C(=O)Nc4ccc(N5CCNCC5)cc4)cc3)c2)S1 ?
Solution: 22

Exercise: What do we get for CS(=O)(=O)Nc1ccc(-c2cc(/C=C3\SC(=N)NC3=O)c[nH]c2=O)cc1 ?
Solution: 2.2

Exercise: What do we get for COc1cc(N2CCN(C)CC2)ccc1Nc1ncc2c(n1)N(C)c1sccc1C(=O)N2C ?
Solution: 98

Exercise: What do we get for N=C1NC(=O)/C(=C/c2c[nH]c(=O)c(-c3ccc(S(N)(=O)=O)cc3)c2)S1 ?
Solution: 13

Kindly give each listed record's kinase still bound, per cent of control.
1. COc1cc(N2CCN(C)CC2)ccc1Nc1ncc2c(n1)N(C1CCCC1)C(C)CC(=O)N2 (configuration not stated)
2. COc1cc(N2CCN(C)CC2)ccc1Nc1ncc2c(n1)Nc1ccccc1NC2=O
3. N=C1NC(=O)/C(=C/c2ccc(-c3cnc4ccccc4c3)o2)S1

Solution:
[19, 72, 8]

Kindly give each listed record's kinase still bound, per cent of control.
1. CN1C(=O)c2ccccc2N(C)c2nc(Nc3ccc(N4CCC(O)CC4)cc3)ncc21
2. COc1cc(N2CCC(O)CC2)ccc1Nc1ncc2c(n1)N1CCc3cccc(c31)C(=O)N2C
3. CS(=O)(=O)Nc1ccc(-c2ncc(/C=C3\SC(=N)NC3=O)s2)cc1
4. CS(=O)(=O)Nc1ccc(-c2cncc(/C=C3\SC(=N)NC3=O)c2)cc1
5. N=C1NC(=O)/C(=C/c2c[nH]c(=O)c(-c3ccc(N4CCNCC4)nc3)c2)S1
6. O=C1NC(=O)/C(=C/c2c[nH]c(=O)c(-c3ccc(N4CCNCC4)nc3)c2)S1
7. NS(=O)(=O)c1ccc(-c2ccc(/C=C3\C(=O)Nc4cccc(Br)c43)o2)cc1

Solution:
1: 43; 2: 84; 3: 29; 4: 22; 5: 6.3; 6: 2; 7: 34

* * *

- Tested on: EGFR (human), P00533 [G719S]
- test_method_notes: KINOMEscan competition binding
- particulars: compound 10.0 µM
Label yes when kinase still bound, per cent of control < 50%; otherwise no.

Below, 5 compounds whose answers are already recorded.
Exercise: Field: below-cutoff. Rule: recorded kinase still bound, per cent of control strictly less than 50%. Subject: Nc1cccc(-c2cc(/C=C3\SC(=O)NC3=O)c[nH]c2=O)c1
Solution: yes

Exercise: What do we get for CN1C(=O)c2ccccc2N(C)c2nc(Nc3ccc(N4CCC(O)CC4)cc3)ncc21 ?
Solution: no

Exercise: What do we get for CS(=O)(=O)Nc1ccc(-c2cccc(/C=C3\SC(=N)NC3=O)n2)cc1 ?
Solution: yes

Exercise: What do we get for CN1CCN(c2ccc(C(=O)Nc3ncc4c(n3)N(C)c3ccccc3C(=O)N4C)cc2)CC1 ?
Solution: no

Exercise: What do we get for CS(=O)(=O)Nc1ccc(-c2cncc(/C=C3\SC(=N)NC3=O)c2)cc1 ?
Solution: yes

New cases:
Exercise: Field: below-cutoff. Rule: recorded kinase still bound, per cent of control strictly less than 50%. Subject: COc1cc(N2CCN(C)CC2)ccc1Nc1ncc2c(n1)Nc1ccccc1NC2=O
Solution: yes

Exercise: What do we get for COc1cc(N2CCN(CCO)CC2)ccc1Nc1ncc2c(n1)N(C1CCCC1)CCC(=O)N2C ?
Solution: yes

Exercise: What do we get for COc1cc(N2CCC(C)(O)CC2)ccc1Nc1ncc2c(n1)N(C1CCCC1)CCC(=O)N2C ?
Solution: yes
